molecules and their reported melting point

Answered cases to consult:
- MOLECULE: "O=C(O)C(Cc1ccccc1)Oc1ccc2cc(-c3csc(-c4ccccc4)n3)ccc2c1Br (centres unmarked)"
  melting point: "220 to 224 °C"
- MOLECULE: "c1ccc(-c2nc(-c3ccc4cc(OCc5nnn[nH]5)ccc4c3)cs2)cc1"
  melting point: "226 to 228 °C"
- MOLECULE: "Brc1c(OCc2nnn[nH]2)ccc2cc(-c3csc(-c4ccccc4)n3)ccc12"
  melting point: "227 to 231 °C"
- MOLECULE: "O=C(O)C(Cc1ccccc1)Oc1ccc2cc(-c3csc(-c4ccccc4)n3)ccc2c1 (centres unmarked)"
  melting point: "154 to 160 °C"
- MOLECULE: "O=C(O)COc1ccc2cc(-c3csc(-c4ccccc4)n3)ccc2c1Br"
  melting point: "222 to 230 °C"
- MOLECULE: "O=C(O)COc1ccc2cc(-c3csc(Cc4c(Cl)cccc4Cl)n3)ccc2c1"
  melting point: "205 to 207 °C"

Query O=C(O)C(Cc1ccccc1)Oc1ccc2cc(-c3nc(-c4ccccc4)sc3Br)ccc2c1Br (centres unmarked) yields melting point of 221 to 223 °C

Query O=C(O)c1ccc(COc2ccc3cc(-c4csc(-c5ccccc5)n4)ccc3c2Br)cc1 (hydrate or solvate) yields melting point of 268 to 270 °C
